Molecular target: T1, recombinant human IL-7Rα-His6-Fc (human, UniProt P16871 21-239)
T1 construct: also called hIL-7R; not shown: His6 tag; Fc (captured by anti-human IgG Fc)
T1 chain: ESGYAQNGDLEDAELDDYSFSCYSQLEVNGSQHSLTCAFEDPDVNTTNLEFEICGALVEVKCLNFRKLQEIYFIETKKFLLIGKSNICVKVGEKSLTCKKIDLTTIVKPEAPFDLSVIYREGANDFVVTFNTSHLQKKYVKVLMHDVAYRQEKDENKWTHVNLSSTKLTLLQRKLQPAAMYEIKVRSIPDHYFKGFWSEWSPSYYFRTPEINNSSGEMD
Test: IL-7/IL-7R neutralisation ELISA; inhibition of IL-7 binding to IL-7R
QUANTITY: pEC50
Keep in mind that pEC50 stands for -log10 of concentration in molar terms.

Summary for this binder, ID-A19U (VHH, V7R-2E9 with G92A; produced from E. coli) VHH: EVQLVESGGGLVQAGGSLRLSCESSISTFSSDAMGWFRQAPGKEREFLAAIGWSGAVTHYSDSVQGRFTISRDNAKNTVYLQMNSLKSEDTARYYCAEDYDTDVWQYWGQGTQVTVSS : pEC50 is 9.73

Summary for this binder, ID-A21U (VHH, V7R-2E9 with Q113L; produced from E. coli) VHH: EVQLVESGGGLVQAGGSLRLSCESSISTFSSDAMGWFRQAPGKEREFLAAIGWSGAVTHYSDSVQGRFTISRDNAKNTVYLQMNSLKSEDTGRYYCAEDYDTDVWQYWGQGTLVTVSS : pEC50 is 9.36

Summary for this binder, ID-A7U (VHH, V7R-2E9 with 44 to 49 EREFLA to GLEWS (so in the source); produced from E. coli) VHH: EVQLVESGGGLVQAGGSLRLSCESSISTFSSDAMGWFRQAPGKGLEWVSAIGWSGAVTHYSDSVQGRFTISRDNAKNTVYLQMNSLKSEDTGRYYCAEDYDTDVWQYWGQGTQVTVSS : pEC50 is 9.29

Summary for this binder, ID-A10U (VHH, V7R-2E9 with R45L; produced from E. coli) VHH: EVQLVESGGGLVQAGGSLRLSCESSISTFSSDAMGWFRQAPGKELEFLAAIGWSGAVTHYSDSVQGRFTISRDNAKNTVYLQMNSLKSEDTGRYYCAEDYDTDVWQYWGQGTQVTVSS : pEC50 is 9.28

Summary for this binder, ID-A13U (VHH, V7R-2E9 with A49S; produced from E. coli) VHH: EVQLVESGGGLVQAGGSLRLSCESSISTFSSDAMGWFRQAPGKEREFLSAIGWSGAVTHYSDSVQGRFTISRDNAKNTVYLQMNSLKSEDTGRYYCAEDYDTDVWQYWGQGTQVTVSS : pEC50 is 9.21

Summary for this binder, ID-A5U (VHH, V7R-2E9 with I26G; produced from E. coli) VHH: EVQLVESGGGLVQAGGSLRLSCESSGSTFSSDAMGWFRQAPGKEREFLAAIGWSGAVTHYSDSVQGRFTISRDNAKNTVYLQMNSLKSEDTGRYYCAEDYDTDVWQYWGQGTQVTVSS : pEC50 is 9.31

Summary for this binder, ID-A4U (VHH, V7R-2E9 with S24A; produced from E. coli) VHH: EVQLVESGGGLVQAGGSLRLSCEASISTFSSDAMGWFRQAPGKEREFLAAIGWSGAVTHYSDSVQGRFTISRDNAKNTVYLQMNSLKSEDTGRYYCAEDYDTDVWQYWGQGTQVTVSS : pEC50 is 9.31

# credit: patent US20220363769A1
